Value source: patent US20230181580A1

For each of the molecules below, state its pKi.
- TEST_SYSTEM: CDK2/A (Homo sapiens)
- ASSAY_COMMENT: CDK kinase inhibition assay (radiometric / ADP Glo)
pKi: −log10 of the molar value.

Lookup: Tell me pKi reported for CNc1nc(C)c(-c2nc(Nc3ccc(N4CCC(N(C)C)CC4)cn3)ncc2F)s1
Found: < 6.00

Lookup: Please look at this molecule and report its pKi: Cc1nc(NC2CCCC2)sc1-c1ccnc(Nc2ccc(N3CCNCC3)cn2)n1
Found: < 6.00

Lookup: Give recorded pKi. CNc1nc(C)c(-c2nc(Nc3ccc(N4CCN(C(C)=O)CC4)cn3)ncc2C#N)s1
Found: < 6.00
